Recorded melting point, one value per entry.

Completed entries (count: 2):
molecule="O=C(O)c1ccccc1-c1ccccc1C(=O)N1CCc2ccccc21 [Compound A4]" observedvalue="195 to 196 °C"
molecule="O=C(O)c1ccccc1-c1ccccc1-c1nc(-c2ccco2)no1 [Compound B8]" observedvalue="171 to 175 °C"

Sample O=C(O)c1ccccc1-c1ccccc1C(=O)N1CCSc2ccccc21 [Compound A3] — what was its melting point? 193 to 195 °C
